TARGET: human hepatocyte growth factor (HGF) (human, UniProt P14210 32-728)
Sequence (P14210 32-728 limits assumed): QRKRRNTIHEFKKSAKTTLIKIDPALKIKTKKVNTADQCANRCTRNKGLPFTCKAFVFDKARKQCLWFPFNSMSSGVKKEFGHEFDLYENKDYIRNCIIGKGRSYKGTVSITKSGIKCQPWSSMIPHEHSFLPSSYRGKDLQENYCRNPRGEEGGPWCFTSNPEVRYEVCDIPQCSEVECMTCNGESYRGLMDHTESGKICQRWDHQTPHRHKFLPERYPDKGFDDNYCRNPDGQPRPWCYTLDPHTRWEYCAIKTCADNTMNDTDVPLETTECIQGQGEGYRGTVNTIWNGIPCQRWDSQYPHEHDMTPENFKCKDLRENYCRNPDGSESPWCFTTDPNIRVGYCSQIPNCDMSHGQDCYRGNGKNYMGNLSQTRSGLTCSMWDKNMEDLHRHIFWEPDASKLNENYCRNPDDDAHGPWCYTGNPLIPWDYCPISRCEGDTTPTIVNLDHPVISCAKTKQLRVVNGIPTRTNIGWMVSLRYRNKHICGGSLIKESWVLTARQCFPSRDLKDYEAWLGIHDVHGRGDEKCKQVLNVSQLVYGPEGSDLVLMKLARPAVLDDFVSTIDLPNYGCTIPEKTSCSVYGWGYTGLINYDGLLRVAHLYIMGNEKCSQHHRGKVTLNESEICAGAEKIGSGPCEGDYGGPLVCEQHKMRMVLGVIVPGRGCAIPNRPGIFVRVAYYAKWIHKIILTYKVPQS
ASSAY NOTES: cell-based or functional assay
In this section we review reported IC50, inhibition of growth/survival of U-87 MG cells values for a set of binders.
MEASURE NAME: IC50, inhibition of growth/survival of U-87 MG cells

[
  {
    "BINDER": "antibody 1.61.3 (antibody, human IgG2, kappa, V domains shown, also called antibody to HGF ultimately derived from hybridoma 1.61.3) VH: QVQLQESGPGLVKPSQTLSLTCTVSGGSISSDGYYWSWIRQHPGKGLEWIGYIYYSGSTYYNPSLKSRVTISVDTSKNQFSLKLSSVTAADTAVYYCARSHLHYYDSSGYYYGGAFDIWGQGTMVTVSS VL: DIQMTQSPSSLSASVGDRVTITCQASQDISNYLNWYQQKPGTAPKLLIYGASDLETGVPSRFSGSGSGTDFTFAISSLQPEDIATYYCQQYDNLPYNFGQGTKLEIKR",
    "READING": "< 100 nM"
  },
  {
    "BINDER": "antibody 1.60.1 (antibody, human IgG2, kappa, V domains shown, also called antibody to HGF ultimately derived from hybridoma 1.60.1) VH: QVQLVQSGAEVKKPGASVKVSCKASGYTFTGYYINWVRQAPGQGLEWMGWINPNSGGTNYAQKFQGRVTMTRDTSITTAYMELSRLRADDTAVYYCARELELRYYGMDVWGQGTTVTVSS VL: DIQMTQSPSSLSVSVGDRVTITCRASQGISSYLAWYQQKPGKVPKLLIYVASTLQSGVPSRFSGSGSGTDFTLTISSLQPEDVATYYCQNYNSDPLTFGGGTKVEIKR",
    "READING": "< 100 nM"
  },
  {
    "BINDER": "antibody 1.24.1 (antibody, human IgG2, kappa, V domains shown, also called antibody to HGF ultimately derived from hybridoma 1.24.1) VH: QVQLVESGGGLVKPGGSLRLSCAASGFTFSDYYMSWIRQAPGKGLEWVSYISSSGSTIYYADSVKGRFTISRDNAKNSLYLQMNSLRAEDTAVYYCARDEYNSGWYVLFDYWGQGTLVTVSS VL: DIQMTQSPSSVSASVGDRVTITCRASQGISSWLAWYQQKPGKAPNLLIYEASSLQSGVPSRFGGSGSGTDFTLTISSLQPEDFATYYCQQANGFPWTFGQGTKVEIKR",
    "READING": "< 100 nM"
  }
]
